system: SK-MEL-28 melanoma; assay: NCI-60 one-dose screen, 48 h (100 = growth as untreated, 0 = no growth, -100 = all killed); details: 10 µM unless noted
The panel holds about 83,000 compounds, 20% with a hit somewhere; the sample as a whole holds those more often.
The following molecules are shown together with reported growth values.
# number only, unit % dropped from output

In the examples that follow, each entry is paired with its recorded growth.
[[record]]
molecule = "COc1cc(N2C(=O)[C@H](Cl)C2c2ccc(SC)cc2)cc(OC)c1OC (stereo not given in full)"
test_readout = "growth"
endpoint_value = 65.7

[[record]]
molecule = "Cc1nc2ccccc2c(/C=C/c2ccc(F)cc2)c1C(=O)/C=C/c1ccccc1"
test_readout = "growth"
endpoint_value = 19.4

[[record]]
molecule = "O=C(/C=C/c1ccccc1)N(C1CCCCC1)C1CCCCC1"
test_readout = "growth"
endpoint_value = 97.9


Here is another molecule to look at.
Requested read-out: growth. Entry: CCOC(=O)C1=C(c2ccccc2)N=C2N(c3ccccc3)N=C(C(C)=O)N2C1c1ccc(F)cc1 (stereo not given)
105
